B1: TPR t1 (parent)
chain: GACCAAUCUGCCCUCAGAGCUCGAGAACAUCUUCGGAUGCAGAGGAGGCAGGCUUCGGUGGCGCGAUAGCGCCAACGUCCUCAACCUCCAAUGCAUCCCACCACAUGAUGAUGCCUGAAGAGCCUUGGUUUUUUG

Variants of: B1
experimental_protocol: polymerase ribozyme fitness, log enrichment relative to wild type (log ratio); higher = more active; in vitro selection for triplet polymerase activity
Please respond with reported polymerase ribozyme fitness (log ratio) for every item in the list.
Numbers only.

Recorded results for 6 variants are shown here.
C56U U116G ... -2.23
G110A G117U ... -4.78
C15A C40A C102U C114G ... -6.22
C11U C13U C22G C82A ... -4.12
C53A G61C U116C ... -5.85
A27C U54A C64A G113A ... -5.44

Below are 8 variants. Give each one its polymerase ribozyme fitness (log ratio).
1. C13U G47U
2. G52C U116A G120A
3. U55C C56A A84C A111G U129A
4. C64U A66U C124A
5. U21C C22G C34A C49A A84G C123U U125G U133C
6. C4G C80U A83C C88U
7. A43U A46U U106A U131A
8. G23A C31U G122U C124G

A:
1. -1.97
2. -2.46
3. -2.42
4. 1.13
5. -4.3
6. -5.05
7. -2.17
8. -7.15

Below are 4 variants. Give each one its polymerase ribozyme fitness (log ratio).
1. G17A C40U
2. G61A A84U C94A U131C
3. C15A A26G G110A G113U
4. A41C C70U

A:
1. -3.88
2. -0.628
3. -6
4. -2.04

Below are 8 variants. Give each one its polymerase ribozyme fitness (log ratio).
1. C13U A26U
2. A24U G61A
3. C62A A66U
4. C62U C70G C72U G120U
5. G39U C62U C115G
6. U59G C85U G113A
7. A6U C13A C22G A75U
8. C62U C72U

A:
[-3.03, -5.9, -3.17, -2.44, -1.99, -1.67, -4.17, -1.03]
